molecular target: 5-hydroxytryptamine receptor 5A (Homo sapiens, UniProt P47898)
Sequence (P47898 whole entry): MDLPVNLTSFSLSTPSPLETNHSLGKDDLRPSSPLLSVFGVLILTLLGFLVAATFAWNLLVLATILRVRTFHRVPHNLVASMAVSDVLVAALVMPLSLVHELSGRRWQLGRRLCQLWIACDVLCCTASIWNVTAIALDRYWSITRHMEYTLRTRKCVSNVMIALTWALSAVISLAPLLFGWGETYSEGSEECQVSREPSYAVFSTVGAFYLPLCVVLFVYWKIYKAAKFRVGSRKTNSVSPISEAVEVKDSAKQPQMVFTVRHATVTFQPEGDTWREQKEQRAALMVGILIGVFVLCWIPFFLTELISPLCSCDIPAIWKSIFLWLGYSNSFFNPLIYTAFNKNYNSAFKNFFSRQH
assay_readout: Ki (nM)

1. CC(C)c1cc(-c2ccc(F)c3ccccc23)nc(N)n1
1000

====

Sequence of the target: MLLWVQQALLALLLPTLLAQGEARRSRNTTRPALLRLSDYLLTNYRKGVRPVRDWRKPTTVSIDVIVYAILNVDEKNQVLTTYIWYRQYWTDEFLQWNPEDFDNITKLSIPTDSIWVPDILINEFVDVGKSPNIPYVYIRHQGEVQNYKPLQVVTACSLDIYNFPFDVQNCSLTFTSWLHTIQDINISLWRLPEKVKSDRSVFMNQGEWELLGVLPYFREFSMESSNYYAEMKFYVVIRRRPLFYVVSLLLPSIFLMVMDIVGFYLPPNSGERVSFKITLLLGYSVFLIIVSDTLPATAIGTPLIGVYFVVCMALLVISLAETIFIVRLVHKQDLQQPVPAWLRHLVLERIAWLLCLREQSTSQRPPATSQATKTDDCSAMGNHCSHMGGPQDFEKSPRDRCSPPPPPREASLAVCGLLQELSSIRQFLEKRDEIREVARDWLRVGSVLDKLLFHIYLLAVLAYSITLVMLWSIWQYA
assay_readout: Ki (nM)

1) CC(C)c1cc(-c2ccc(F)c3ccccc23)nc(N)n1 [RS-127445]
1000
